Taken from PubChem BioAssay AID256.

System: CD2F1 mice, L1210 leukemia ip, survival T/C
Protocol text: NCI In Vivo Anticancer Drug Screen. Data for tumor model L1210 Leukemia (intraperitoneal) in CD2F1 (CDF1) mice
Stated conditions: endpoint: mean survival time; dose: 100.0 mg/kg/injection; schedule: Q01DX009 (ip); vehicle: saline with Tween-80; higher = longer survival
Toxic doses and inconclusive results are not listed.
Property label: T/C

• CC(=O)Nc1ccccc1OC(=O)c1ccccc1 = 97 % of control
• O=C(O)C1CC2C(=O)CCCCCCC2C1O (configuration not stated) = 98 % of control
• O=c1oc2c(ccc3ccccc32)c(O)c1-c1ccccc1 = 103 % of control
• COC(=O)C1OC1(C)c1ccc(C)cc1 (configuration not stated) = 93 % of control
• O=C(CNC(=O)Nc1cccc(C(F)(F)F)c1)N/N=C/c1cccc([N+](=O)[O-])c1 = 88 % of control
• c1ccc2c3c(ccc2c1)OCN(C12CC4CC(CC(C4)C1)C2)C3 = 96 % of control
• Cc1cccc(SC(=O)Nc2ccc(Cl)cc2C)c1 = 95 % of control

----------
System: CD2F1 mice, L1210 leukemia ip, survival T/C
Protocol text: NCI In Vivo Anticancer Drug Screen. Data for tumor model L1210 Leukemia (intraperitoneal) in CD2F1 (CDF1) mice
Stated conditions: endpoint: mean survival time; dose: 400.0 mg/kg/injection; schedule: Q01DX009 (ip); vehicle: saline with Tween-80; higher = longer survival
Inconclusive results and toxic doses are left out. Non-standard residues stand in square brackets, D forms with d. Residues, ends and D or L forms follow the SMILES beside them. ξ: configuration not given here. *: point of attachment. Bz = O=C(c1ccccc1)*; Bn = c1ccc(C*)cc1; ξC = NC(CS)C(=O)O
Property label: T/C

• NNC(=O)c1cccc(C(=O)NN)c1 = 98 % of control
• COc1cc2ccc(/C(C)=N/OC(C)=O)cc2cc1OC = 97 % of control
• CCO/N=C(\C)C(N)=O = 95 % of control
• CC(=O)N(c1c(-c2ccccc2)nc2ccccc2c1C(=O)O)C1CCCCC1 = 90 % of control
• CCOC(=O)C(CO)(NC(C)=O)C(=O)OCC = 105 % of control
• CC(=O)c1ccccc1OC(=O)c1ccccc1 = 93 % of control
• CSc1nc2cc(C)c(C)cc2[nH]1 = 94 % of control
• CCOC(=O)c1ccc(NCN2C(=O)CCC2=O)cc1 = 102 % of control
• CCCCOC(=O)CC(=O)OCCCC = 96 % of control
• CC1=CC=CC2=NC(=O)CCN12 = 103 % of control
• Fc1c(F)c(F)c(OP2(Oc3c(F)c(F)c(F)c(F)c3F)=NP(Oc3c(F)c(F)c(F)c(F)c3F)(Oc3c(F)c(F)c(F)c(F)c3F)=NP(Oc3c(F)c(F)c(F)c(F)c3F)(Oc3c(F)c(F)c(F)c(F)c3F)=N2)c(F)c1F = 95 % of control
• CCCCOC(=O)CCCCC(=O)OCCCC = 110 % of control
• O=C(O)C1CCC(C(=O)O)CC1 (configuration not stated) = 87 % of control
• CC1(C)CC(=O)C=C(OCCc2ccccc2)C1 = 102 % of control
• COC(=O)C1(C)CCCC2(C)C1CCC13OC1C1(C(C)C)OC1CC23 (configuration not stated) = 98 % of control
• CS/C(N)=N\S(=O)(=O)c1ccc(NC(C)=O)cc1 = 106 % of control
• c1ccc2c3c(ccc2c1)OCN(C12CC4CC(CC(C4)C1)C2)C3 = 90 % of control
• Cc1ncc(C(=O)O)n1Cc1ccccc1 = 92 % of control
• CC(=O)OC(OC(C)=O)c1ccc([N+](=O)[O-])cc1 = 97 % of control
• O=c1c2ccccc2c2nccc3c4ccccc4n1c32 = 100 % of control
• O=C(NC1CCC(CC2CCCCC2)CC1)c1ccccc1 (configuration not stated) = 114 % of control
• O=C(c1ccccc1Cl)n1c2c(c3ccccc31)CCCC2 = 96 % of control
• Cc1ccc(NC(=O)c2ccccc2C(=O)O)cc1C = 94 % of control
• CCOC(=O)C(C#N)N=Nc1ccccc1 (configuration not stated) = 95 % of control
• CCCCCCC(/C=N\N=C\c1ccco1)=C\c1ccccc1 = 100 % of control
• CCCCCCCCCCCCCCCCOc1ccccc1CNc1cc(Cl)ccc1Cl = 93 % of control
• OC(CCCCl)CC(O)(C(F)(F)F)C(F)(F)F (configuration not stated) = 86 % of control
• O=C(NCCNC(=O)Nc1ccc(Cl)cc1)Nc1ccc(Cl)cc1 = 96 % of control
• CC(C)(C)NC(=O)CCC(CC(=O)NC(C)(C)C)OCc1ccccc1 (configuration not stated) = 93 % of control
• COC(=O)C1(C)CCCC2(C)C1CCC13OC(=O)C(C(C)C)(CC21)C3O (configuration not stated) = 92 % of control
• Cc1ccc(S(=O)(=O)NC(=O)O/N=C/c2ccccn2)cc1 = 100 % of control
• O=C([O-])[O-].O=[N+]([O-])O.[Co+3].[NH2-].[NH2-].[NH2-].[NH2-] = 93 % of control
• Cc1cccc(C)c1NC(=S)NNC(=O)NNC(=S)Nc1c(C)cccc1C = 105 % of control
• O=C1C=CC(=O)N1c1nccs1 = 95 % of control
• COc1ccc(CCNC(=O)C(c2ccccc2)c2ccccc2)cc1OC = 92 % of control
• O=[n+]1cc2ccccn2cc1-c1ccccc1 = 101 % of control
• CCOC(=O)NCC(Cl)CP(=O)(c1ccccc1)c1ccccc1 (configuration not stated) = 96 % of control
• CCOC(=O)/C=C1\NC(=O)CS1 = 103 % of control
• COC(=O)C(CSCc1ccccc1)NC(=O)CNC(=O)c1ccccc1 (configuration not stated) (Bz-Gly-[ξC](Bn)-OMe) = 91 % of control
• CC1OCOC(C)C1C (configuration not stated) = 98 % of control
• Clc1nc(Oc2ccccc2)nc(-c2cn(-c3ccccc3)c3ccccc23)n1 = 97 % of control
• O=c1[nH]c(=O)n([C@H]2CCCO2)cc1F = 104 % of control

----------
The following compounds are listed with their measured T/C values.
System: CD2F1 mice, L1210 leukemia ip, survival T/C
Protocol text: NCI In Vivo Anticancer Drug Screen. Data for tumor model L1210 Leukemia (intraperitoneal) in CD2F1 (CDF1) mice
Stated conditions: endpoint: mean survival time; dose: 400.0 mg/kg/injection; schedule: Q01DX001 (ip); vehicle: saline with Tween-80; higher = longer survival
Inconclusive results and toxic doses are left out.
Property label: T/C

- CCC(=O)O[C@H]1CC[C@H]2[C@@H]3[C@@H](C)CC4=CC(=O)CC[C@]4(C)[C@H]3CC[C@]12C: 94 % of control
- O=C1C(c2ccccc2)=C(c2ccccc2)C(c2ccccc2)=C1c1ccccc1: 91 % of control
- N#CC(C#N)C(O)c1c[nH]c2ccccc12 (centres undefined): 94 % of control
- Cc1cc(NCCN(C(C)C)C(C)C)nc(Nc2nc3ccc(Cl)cc3[nH]2)n1: 98 % of control
- COc1cccc(C(=O)NC[n+]2cccc(O)c2)c1: 88 % of control
- CC1CCC(CC(N)=O)C1(C)C (centres undefined): 97 % of control
- CCCCCCCCC(CCCCCCCC)CCCC1CCCC1: 103 % of control
- C=C1C(=O)O[C@@H]2C[C@@]3(C)CC(=O)C=C(C)[C@@H]3C[C@H]12: 101 % of control
- C(/C=C\c1ccccc1)=C(/C=C/c1ccccc1)/C=C/c1ccccc1: 89 % of control
- O=S(=O)(c1ccc(Br)cc1)c1ccc(Br)cc1: 97 % of control
- CC(C)(C)C1=Nc2ccccc2[Si]1(C)C: 95 % of control
- O=c1cc(NCCCOc2ccccc2)[nH]c(=O)[nH]1: 98 % of control
- CCCOC(=O)c1ccc(N)cc1: 103 % of control
- CCOC(=O)CCC(NC(=O)c1cccc(N(C)C=O)c1)C(=O)OCC (centres undefined): 113 % of control
- CC(C)c1ccc(-n2cnc3c(=O)[nH]c(N)nc32)cc1: 91 % of control
- [N-]=[N+]=c1c(=O)c2ccccc2c1=O: 104 % of control
- BrC1=C(c2ccccc2)SC(Br)=C(c2ccccc2)S1: 91 % of control
- COc1cc(N(C)C)ccc1/C=C\c1ccnc2ccccc12: 93 % of control
- CCC1CC(=O)C2Nc3ccccc3C2C1 (centres undefined): 86 % of control

----------
System: CD2F1 mice, L1210 leukemia ip, survival T/C
Protocol text: NCI In Vivo Anticancer Drug Screen. Data for tumor model L1210 Leukemia (intraperitoneal) in CD2F1 (CDF1) mice
Stated conditions: endpoint: mean survival time; dose: 100.0 mg/kg/injection; schedule: Q01DX009 (ip); vehicle: Klucel (hydroxypropylcellulose) (HPC); higher = longer survival
Toxic doses and inconclusive results are not listed.
Property label: T/C

* O=C(O)C1CCC(NCc2ccccc2)CC1 (stereo not given) | 100 % of control
* COc1ccc(NC(=O)Nc2cc(C)on2)c(Cl)c1 | 95 % of control
* O=C1Nc2ccccc2C(=O)Nc2ccccc21 | 93 % of control
* Cc1ccc(S(=O)(=O)N/N=C/c2ccncc2)cc1 | 98 % of control
* C[Si](C)(C)OSc1ccccc1[N+](=O)[O-] | 93 % of control
